Taken from the supplement of paper PMC10307832.

In this section, each of the compounds is paired with its reported relative viability.
- Tested on: NCI-H727
- PROCEDURE TEXT: relative viability (nuclei count vs DMSO), 5 days (fraction); higher = more cells survive
- COND: first compound 0.8 µM

Answered cases to consult:
INSERT INTO results (compound, result_value) VALUES
  ('CCCCCCCCCCCC1=C(O)C(=O)C=C(O)C1=O [Embelin] + COc1cccc2cc(-c3nc([C@H]4CC[C@H](C(=O)O)CC4)n4ncnc(N)c34)[nH]c12 [OSI-027] (partner 0.5 µM)', 0.79),
  ('CCCCCCCCCCCC1=C(O)C(=O)C=C(O)C1=O [Embelin] + Nc1ncn([C@H]2C[C@H](O)[C@@H](CO)O2)c(=O)n1 [Decitabine] (partner 2 µM)', 0.96),
  ('CCCCCCCCCCCC1=C(O)C(=O)C=C(O)C1=O [Embelin] + CC(C)C[C@H](NC(=O)[C@H](Cc1ccccc1)NC(=O)c1cnccn1)B(O)O [Bortezomib] (partner 0.002 µM)', 0.997),
  ('CCCCCCCCCCCC1=C(O)C(=O)C=C(O)C1=O [Embelin] + Cc1cc(Nc2cc(N3CCN(C)CC3)nc(Sc3ccc(NC(=O)C4CC4)cc3)n2)n[nH]1 [Tozasertib] (partner 0.1 µM)', 0.565),
  ('CCCCCCCCCCCC1=C(O)C(=O)C=C(O)C1=O [Embelin] + N=C(N)NC(=N)NCCc1ccccc1 [Phenformin] (partner 250 µM)', 0.597),
  ('CCCCCCCCCCCC1=C(O)C(=O)C=C(O)C1=O [Embelin] + Cc1nc(NC(=O)N2CCC[C@H]2C(N)=O)sc1-c1ccnc(C(C)(C)C(F)(F)F)c1 [Alpelisib] (partner 2 µM)', 0.57);

As a next step, examine the compound that follows.
Need relative viability, item CCCCCCCCCCCC1=C(O)C(=O)C=C(O)C1=O [Embelin] + CS(=O)(=O)N1CCN(Cc2cc3nc(-c4cccc5[nH]ncc45)nc(N4CCOCC4)c3s2)CC1 [Pictilisib] (partner 1 µM)
0.526

###

- System: NCI-H1915
- PROCEDURE TEXT: relative viability (nuclei count vs DMSO), 5 days (fraction); higher = more cells survive
- COND: first compound 0.4 µM
# note: exactly 0.6 is not below, so it is N; use Y for relative viability strictly under it

Use these answered entries as a reference point.
INSERT INTO assay_data (compound, label) VALUES
  ('COc1cc(N2CCC(C(N)=O)CC2)ccc1Nc1nc(N)c(Cl)c(Nc2ccccc2S(=O)(=O)C(C)C)n1 [HG-5-88-01] + NC(=O)Nc1cc(-c2cccc(F)c2)sc1C(=O)N[C@H]1CCCNC1 [AZD7762] (partner 0.2 µM)', 'N'),
  ('COc1cc(N2CCC(C(N)=O)CC2)ccc1Nc1nc(N)c(Cl)c(Nc2ccccc2S(=O)(=O)C(C)C)n1 [HG-5-88-01] + CCNC(=O)c1noc(-c2cc(C(C)C)c(O)cc2O)c1-c1ccc(CN2CCOCC2)cc1 [Luminespib] (partner 0.01 µM)', 'N'),
  ('COc1cc(N2CCC(C(N)=O)CC2)ccc1Nc1nc(N)c(Cl)c(Nc2ccccc2S(=O)(=O)C(C)C)n1 [HG-5-88-01] + Cc1nc(Nc2ncc(C(=O)Nc3c(C)cccc3Cl)s2)cc(N2CCN(CCO)CC2)n1 [Dasatinib] (partner 0.075 µM)', 'Y'),
  ('COc1cc(N2CCC(C(N)=O)CC2)ccc1Nc1nc(N)c(Cl)c(Nc2ccccc2S(=O)(=O)C(C)C)n1 [HG-5-88-01] + CC(=O)Nc1cccc(-n2c(=O)n(C3CC3)c(=O)c3c(Nc4ccc(I)cc4F)n(C)c(=O)c(C)c32)c1 [Trametinib] (partner 0.02 µM)', 'Y'),
  ('COc1cc(N2CCC(C(N)=O)CC2)ccc1Nc1nc(N)c(Cl)c(Nc2ccccc2S(=O)(=O)C(C)C)n1 [HG-5-88-01] + COc1cc2c(Oc3ccc(NC(=O)C4(C(=O)Nc5ccc(F)cc5)CC4)cc3F)ccnc2cc1OCCCN1CCOCC1 [Foretinib] (partner 0.25 µM)', 'N'),
  ('C[C@@H]1CN(CC(=O)Nc2ccc3c(c2)Cc2cccc(-c4cc(=O)cc(N5CCOCC5)o4)c2S3)C[C@H](C)O1 + CCNC(=O)c1noc(-c2cc(C(C)C)c(O)cc2O)c1-c1ccc(CN2CCOCC2)cc1 [Luminespib] (partner 0.01 µM)', 'N');

Just wondering, is relative viability of Clc1ccc(Nc2nnc(Cc3ccncc3)c3ccccc23)cc1 [Vatalanib] + N=C(N)NC(=N)NCCc1ccccc1 [Phenformin] (partner 250 µM) below 0.6?
Y

Item: COc1cc(N2CCC(C(N)=O)CC2)ccc1Nc1nc(N)c(Cl)c(Nc2ccccc2S(=O)(=O)C(C)C)n1 [HG-5-88-01] + Cc1cc(Nc2cc(N3CCN(C)CC3)nc(Sc3ccc(NC(=O)C4CC4)cc3)n2)n[nH]1 [Tozasertib] (partner 0.1 µM)
Y

###

- Test system: HCC-366
- PROCEDURE TEXT: relative viability (nuclei count vs DMSO), 5 days (fraction); higher = more cells survive
- COND: first compound 0.04 µM
PROPERTY LABEL: relative viability
Give your answer as a number; write no unit.

Answered cases to consult:
INSERT INTO assay_data (compound, property_label, result_value) VALUES
  ('COc1cc(N2CCC(C(N)=O)CC2)ccc1Nc1nc(N)c(Cl)c(Nc2ccccc2S(=O)(=O)C(C)C)n1 [HG-5-88-01] + Cc1nc(Nc2ncc(C(=O)Nc3c(C)cccc3Cl)s2)cc(N2CCN(CCO)CC2)n1 [Dasatinib] (partner 0.075 µM)', 'relative viability', 0.65),
  ('COc1cc(N2CCC(C(N)=O)CC2)ccc1Nc1nc(N)c(Cl)c(Nc2ccccc2S(=O)(=O)C(C)C)n1 [HG-5-88-01] + NC(=O)Nc1cc(-c2cccc(F)c2)sc1C(=O)N[C@H]1CCCNC1 [AZD7762] (partner 0.2 µM)', 'relative viability', 0.286),
  ('Clc1ccc(Nc2nnc(Cc3ccncc3)c3ccccc23)cc1 [Vatalanib] + N=C(N)NC(=N)NCCc1ccccc1 [Phenformin] (partner 250 µM)', 'relative viability', 0.597);

As a next step, examine the compound that follows.
Need relative viability, item Clc1ccc(Nc2nnc(Cc3ccncc3)c3ccccc23)cc1 [Vatalanib] + Nc1nc2[nH]cc(CCc3ccc(C(=O)N[C@@H](CCC(=O)O)C(=O)O)cc3)c2c(=O)[nH]1 [Pemetrexed] (partner 0.2 µM)
0.148

###

- Test system: 201T
- PROCEDURE TEXT: relative viability (nuclei count vs DMSO), 5 days (fraction); higher = more cells survive
- COND: first compound 0.8 µM
PROPERTY LABEL: relative viability
Give your answer as a number; write no unit.

INSERT INTO results (compound, assay_target, result_value) VALUES
  ('CCCCCCCCCCCC1=C(O)C(=O)C=C(O)C1=O [Embelin] + CC1(C)CCC(c2ccc(Cl)cc2)=C(CN2CCN(c3ccc(C(=O)NS(=O)(=O)c4ccc(N[C@H](CCN5CCOCC5)CSc5ccccc5)c(S(=O)(=O)C(F)(F)F)c4)cc3)CC2)C1 [Navitoclax] (partner 0.5 µM)', '201T', 1.19);

Need relative viability, item CCCCCCCCCCCC1=C(O)C(=O)C=C(O)C1=O [Embelin] + Cc1nc(Nc2ncc(C(=O)Nc3c(C)cccc3Cl)s2)cc(N2CCN(CCO)CC2)n1 [Dasatinib] (partner 0.075 µM)
0.641

###

- Test system: NCI-H520
- PROCEDURE TEXT: relative viability (nuclei count vs DMSO), 5 days (fraction); higher = more cells survive
- COND: first compound 0.08 µM
In this section, each of the compounds is paired with its reported relative viability.
Give your answer as a number; write no unit.

INSERT INTO results (compound, result_value) VALUES
  ('CCCCCCCCCCCC1=C(O)C(=O)C=C(O)C1=O [Embelin] + Nc1ncn([C@H]2C[C@H](O)[C@@H](CO)O2)c(=O)n1 [Decitabine] (partner 2 µM)', 0.478);

Need relative viability, item CCCCCCCCCCCC1=C(O)C(=O)C=C(O)C1=O [Embelin] + CS(=O)(=O)N1CCN(Cc2cc3nc(-c4cccc5[nH]ncc45)nc(N4CCOCC4)c3s2)CC1 [Pictilisib] (partner 1 µM)
0.346

Item: CCCCCCCCCCCC1=C(O)C(=O)C=C(O)C1=O [Embelin] + Cc1cc(Nc2cc(N3CCN(C)CC3)nc(Sc3ccc(NC(=O)C4CC4)cc3)n2)n[nH]1 [Tozasertib] (partner 0.1 µM)
0.56

###

- Tested on: NCI-H1793
- PROCEDURE TEXT: relative viability (nuclei count vs DMSO), 5 days (fraction); higher = more cells survive
- COND: first compound 8 µM
In this section, each of the compounds is paired with its reported relative viability.

Answered cases to consult:
INSERT INTO assay_data (compound, result_value) VALUES
  ('CCCCCCCCCCCC1=C(O)C(=O)C=C(O)C1=O [Embelin] + N=C(N)NC(=N)NCCc1ccccc1 [Phenformin] (partner 250 µM)', 0.352),
  ('CCCCCCCCCCCC1=C(O)C(=O)C=C(O)C1=O [Embelin] + NC(=O)Nc1cc(-c2cccc(F)c2)sc1C(=O)N[C@H]1CCCNC1 [AZD7762] (partner 0.2 µM)', 0.408),
  ('CCCCCCCCCCCC1=C(O)C(=O)C=C(O)C1=O [Embelin] + Nc1ncn([C@H]2C[C@H](O)[C@@H](CO)O2)c(=O)n1 [Decitabine] (partner 2 µM)', 0.549),
  ('CCCCCCCCCCCC1=C(O)C(=O)C=C(O)C1=O [Embelin] + CS(=O)(=O)N1CCN(Cc2cc3nc(-c4cccc5[nH]ncc45)nc(N4CCOCC4)c3s2)CC1 [Pictilisib] (partner 1 µM)', 0.218);

As a next step, examine the compound that follows.
Need relative viability, item CCCCCCCCCCCC1=C(O)C(=O)C=C(O)C1=O [Embelin] + CCNC(=O)c1noc(-c2cc(C(C)C)c(O)cc2O)c1-c1ccc(CN2CCOCC2)cc1 [Luminespib] (partner 0.01 µM)
0.186
